// provenance: PubChem BioAssay (NCI)

- Tested on: RXF 393 renal
- Assay text: NCI-60 one-dose screen, 48 h (100 = growth as untreated, 0 = no growth, -100 = all killed)
- Settings: 10 µM unless noted
This is part of a sample that, as a whole, favours compounds with a hit. Of some 83,000 tested, about 20% had one in any assay.
Measurement name: growth (%)
The reply should be a number in %, with the unit left off.

Exam item: # input compound: CCCCCCCCC/C(=N\NC(=O)c1ccncc1)c1ccc(O)c(O)c1O ; wanted: its growth
Marked response: 19.2

Exam item: What growth value was documented for this compound, C/C=C/C/C=C/[C@H](C)C[C@H](O)[C@@H]1C[C@@H]2O[C@H]2/C=C/[C@@H]2OC(C)(C)O[C@H]2/C=C/C[C@H](C)CC(=O)O1 ?
Marked response: 81.1

Exam item: Given O=C1C(=O)c2ccccc2C(O)=C1CCCc1ccc(C2CCCC2)cc1 , state its recorded growth.
Marked response: 57.9

###

Exercise: state measured growth for each of the molecules provided.
- System: HCT-15 colon
- Assay text: NCI-60 one-dose screen, 48 h (100 = growth as untreated, 0 = no growth, -100 = all killed)
- Settings: 10 µM unless noted
This is part of a sample that, as a whole, favours compounds with a hit. Of some 83,000 tested, about 20% had one in any assay.
Field: numeric (%). Do not append units.

Exam item: GET /values?readout=growth&system=HCT-15 colon&item= COC1NC(Cl)=C(C#N)C(C#N)(C#N)C1(C)C (stereo not given)
Marked response: 121

Exam item: API: value(readout=growth, system=HCT-15 colon) for record COc1ccc(Oc2[nH]n(C3=Nc4ccccc4Sc4ccccc43)c(=O)c2C#N)cc1
Marked response: 101

Exam item: Query the reported growth for HCT-15 colon; item: COc1cc(OC)c(NC(=O)n2ncc3cc(Nc4ncnc5ccccc45)ccc32)cc1Cl
Marked response: 93.8

Exam item: Return growth measured with HCT-15 colon given this molecule: CCOC(=O)/C(C#N)=C(/CC)OCC
Marked response: 109

Exam item: Report growth for CC(Br)c1nc2ccccc2cc1C(N)=O (stereo not given) tested on HCT-15 colon.
Marked response: 98.9

###

- Test system: SR leukemia
- Assay text: NCI-60 one-dose screen, 48 h (100 = growth as untreated, 0 = no growth, -100 = all killed)
- Settings: 10 µM unless noted
This is part of a sample that, as a whole, favours compounds with a hit. Of some 83,000 tested, about 20% had one in any assay.
What growth was measured for each of the following?
Quick note: give the figure in %, leave out the unit.

Exam item: State its growth on SR leukemia: CC(=O)C(CO)C(=O)Nc1ccccc1 (configuration not stated)
Marked response: 94.8

Exam item: Return growth measured with SR leukemia given this compound: COC(=O)C(N)CC(C)C (configuration not stated)
Marked response: 86.4

Exam item: Form field - read-out: growth; system: SR leukemia; submitted item: CC1=C(C)C[C@]2(C(=O)O[C@H]3CCCC[C@@H]32)[S@](=O)C1
Marked response: 92.3

Exam item: Lab note: need growth for O=C1C(Cl)=C(Nc2ccc(Nc3ccccc3)c(NC3=C(Cl)C(=O)c4ccccc4C3=O)c2)C(=O)c2ccccc21 on SR leukemia, anyone have it?
Marked response: 44.6

Exam item: For the record CC(=O)Nc1nc(C)c(C(=O)N/N=C/N2CCOCC2)s1 , what value of growth is listed for SR leukemia?
Marked response: 169

Exam item: What value of growth on SR leukemia does N=C(N)N=Nc1ccc(NN=C(N)N)cc1 have?
Marked response: 108

Exam item: Lab note: need growth with SR leukemia for entry COC(=O)/C(Br)=C/c1c[nH]c2ccc(Br)cc12 , please look it up.
Marked response: -6.18

Exam item: Param readout = growth; param system = SR leukemia; param query = O=S(=O)(Cc1cccc2c(CS(=O)(=O)c3ccc(Cl)cc3)cccc12)c1ccc(Cl)cc1 ; response: value
Marked response: 94.7

Exam item: GET /values?readout=growth&system=SR leukemia&item= O=C(/C=C/c1ccc(Br)cc1)c1ccccc1
Marked response: 4.53

Exam item: Lab note: need growth with SR leukemia for entry CCOC(=O)C1=NN(c2ccccc2)C2=NC(=O)/C(=C\c3cn(-c4ccccc4)nc3-c3cc4ccccc4o3)C(=O)N12 , please look it up.
Marked response: 98

Exam item: Test system SR leukemia; read-out growth; what value for CCN(CC)CCCC(C)Nc1c(C)cnc2cc(Cl)c(C)cc12 (configuration not stated) ?
Marked response: 16.5

Exam item: Return growth measured with SR leukemia given this compound: O=C1/C(=N\c2cc(=O)[nH]n2S(=O)(=O)c2ccccc2)Nc2ccccc21
Marked response: 89.7

Exam item: growth of CCCCCCNC(=O)Oc1ccc(/C(=C(/C)Cc2ccc(OC)cc2)c2ccc(OCCN(C)C)cc2)cc1 on SR leukemia?
Marked response: -22.5

Exam item: Please provide the recorded growth for COc1ccc2cc(C(C)C(=O)Nc3ccc(S(=O)(=O)Nc4cc(C)on4)cc3)ccc2c1 (configuration not stated) , tested on SR leukemia.
Marked response: 100

Exam item: Record COc1ccc(C2=NN(C(=O)c3cc(-c4ccc(C)cc4)nc4ccccc34)C(c3cc(-c4ccccc4)nn3-c3ccccc3)C2)cc1 (configuration not stated) : what is its growth with SR leukemia?
Marked response: 89.5

Exam item: Short answer please: growth, SR leukemia, entry Cc1ccc(OCCn2ccc(=O)n(CCOc3ccc(Cl)cc3C(=O)c3cc(C)cc(C)c3)c2=O)cc1
Marked response: 19.7

Exam item: Field: growth (SR leukemia). Entry: Oc1ccc([S+](c2ccc(O)cc2)c2ccc(O)cc2)cc1
Marked response: 89.1

Exam item: Which measured growth belongs to O=C(N/N=C/c1cc(Cl)ccc1O)C(=O)N/N=C/c1cc(Cl)ccc1O , tested on SR leukemia?
Marked response: 51.3

Exam item: What growth appears in the records for this compound with SR leukemia? COc1cc(-c2nn(-c3ccc(NC(=O)c4cc(Cl)cc(Cl)c4)cc3)cc2-c2ccncc2)ccc1Cl
Marked response: 14.6

Exam item: // fetch SR leukemia growth for CCOC(=O)C1=C(C(F)(F)F)NC(=O)NC1CN1C(=O)c2ccccc2C1=O (configuration not stated)
Marked response: 5.85

Exam item: Give recorded growth with SR leukemia for the following compound: COc1cccc2c1nc1cccc(OC)c1[n+]2[O-]
Marked response: -0.211

Exam item: Record CCOC(=O)C1CCCN1C(=O)C1(NC(C)=O)CCCC1 (configuration not stated) : what is its growth with SR leukemia?
Marked response: 102

Exam item: State its growth on SR leukemia: CCOc1ccc2nc3ccc(Cl)cc3nc2c1
Marked response: -19.9

Exam item: Short answer please: growth, SR leukemia, entry CCS(=O)(=O)N[C@@H]1O[C@H](COC(C)=O)C(OC(C)=O)[C@H](OC(C)=O)C1OC(C)=O (some centres not stated)
Marked response: 104

Exam item: Reported growth for SR leukemia, given COc1ccc(Cn2cc3c(c2-c2ccccc2)CCc2cnoc2-3)cc1N ?
Marked response: 11.8

Exam item: API: value(readout=growth, system=SR leukemia) for record COC(=O)/C=C1/CCCCC1(C)C(=O)OC (configuration not stated)
Marked response: 92.8

Exam item: Reported growth for SR leukemia, given COc1nc(OC)nc(-c2cc(-c3cc(OC)c(OC)c(OC)c3)no2)n1 ?
Marked response: 95.6
